Hi there, I'd appreciate the recorded MIC for every entry that follows.
system: Bacillus cereus; test: Antibacterial activity against Bacillus cereus MTCC 430 after 18 hrs by TTC staining based broth microdilution method; type: functional; details: MTCC 430, 18 h
Answers are plain numbers, in µg/mL.

Lab note: each molecule below needs its MIC filled in.
1. O=C(N[C@H](CO)[C@H](O)c1ccc([N+](=O)[O-])cc1)C(Cl)Cl
2. Cc1ccc(C(c2c(C)[nH][nH]c2=O)C2C(=O)NC(=O)NC2=O)cc1 (stereo not drawn)
3. O=c1oc2ccccc2c(O)c1C(c1cccc(Br)c1)c1c(O)c2ccccc2oc1=O

[90, 6250, 3120]
